Tested on: Peripheral blood mononuclear cells (PBMC)
Type: cell-based
Conditions: human, 7 days
Experimental: Peripheral blood mononuclear cells (PBMC) obtained from healthy donors by separation over Ficoll-Hypaque (GEHealthear-Cat.# GEH17-1440-02) were suspended at 2x10^6 cells/mL in RPMI 1640 (Biowest-Cat.#L0501-500) supplemented with 10% of heat-inactivated sterile fetal bovine serum (Gibco-Cat.#10270-106), 2 mmol/l L-glutamine (Biowest-Cat.#X0550-100), 50 U/mL Penicillin-50 µg/mL Streptomycin (Biowest-Cat.#L0022-100), referred to as complete medium (CM). […]
experimental readout: Proliferation assay PBMC TD50
Give your result as the value with the unit written after it.

Examples from the recorded data:
{"columns": ["smiles string", "Proliferation assay PBMC TD50"],
 "data": [
  ["O=C(NCCCC1CCCCC1)c1nc(-c2ccccn2)nc(O)c1O", "2000 nM"],
  ["Cc1ccc(-c2nc(O)c(O)c(C(=O)N[C@H](C)C3CCCCC3)n2)nc1C", "6700 nM"],
  ["C[C@@H](NC(=O)c1nc(-c2cc(CCN)ccn2)nc(O)c1O)C1CCCCC1", "3250 nM"],
  ["C[C@@H](NC(=O)c1nc(-c2cc(C(=O)NCc3ccccc3)ccn2)nc(O)c1O)C1CCCCC1", "1680 nM"],
  ["O=C(OCC1CCCCC1)c1nc(-c2ccccn2)nc(O)c1O", "6000 nM"]
]}

The molecule listed as C[C@H](NC(=O)c1nc(-c2ccc(N)cn2)nc(O)c1O)C1CCCCC1 shows Proliferation assay PBMC TD50 equal to 1400 nM

Cc1ccc(-c2nc(O)c(O)c(C(=O)N[C@H](C)C3CCCCC3)n2)nc1 yielded Proliferation assay PBMC TD50 of 2800 nM

Lookup result for C[C@@H](NC(=O)c1nc(-c2cc(CCN(C)C)ccn2)nc(O)c1O)C1CCCCC1 ; measured Proliferation assay PBMC TD50: 2020 nM
